Hello, the source for this data is ChEMBL document CHEMBL1909046, in case you need it.

Target: UniProt:P0DMS8
Sequence (P0DMS8 whole entry): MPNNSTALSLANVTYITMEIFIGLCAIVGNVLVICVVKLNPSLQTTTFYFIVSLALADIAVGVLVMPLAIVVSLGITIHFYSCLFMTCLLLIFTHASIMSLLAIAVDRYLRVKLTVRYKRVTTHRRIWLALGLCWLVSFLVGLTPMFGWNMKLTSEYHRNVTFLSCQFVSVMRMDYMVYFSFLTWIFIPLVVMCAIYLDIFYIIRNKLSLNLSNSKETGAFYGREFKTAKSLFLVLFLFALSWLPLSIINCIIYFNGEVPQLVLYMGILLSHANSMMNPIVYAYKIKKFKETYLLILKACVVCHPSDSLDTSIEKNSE
Format: cell membranes, CHO-K1, Membrane
Conditions: cho-k1; further: in other assays of this panel Not Active means under 50% inhibition at 10 µM;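 further: radioligand binding assay with AB-MECA serving as the labeled ligand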
test.readout: IC50

INSERT INTO results (compound, result) VALUES
  ('Cc1c(OCC(F)(F)F)ccnc1C[S+]([O-])c1nc2ccccc2[nH]1 (stereo not drawn)', 'Not Active'),
  ('CC(C)(C)NC(=O)[C@H]1CC[C@H]2[C@@H]3CC[C@H]4NC(=O)C=C[C@]4(C)[C@H]3CC[C@]12C [FINASTERIDE]', 'Not Active'),
  ('COc1cc(N)c(Cl)cc1C(=O)NC1CCN(CCCOc2ccc(F)cc2)CC1OC (stereo not drawn) [CISAPRIDE]', 'Not Active'),
  ('CN1[C@@H]2CC[C@H]1C[C@@H](OC(=O)C(CO)c1ccccc1)C2 (stereo partly drawn)', 'Not Active'),
  ('O.O.O.O.O.O.[Cl-].[Cl-].[Sr+2] [STRONTIUM CHLORIDE HEXAHYDRATE]', 'Not Active');

Would you mind listing IC50 for each of the following compounds?
1. C#CC1(O)CC[C@H]2[C@@H]3CCC4=CC(=O)CC[C@@H]4[C@H]3CC[C@@]21CC (stereo partly drawn)
2. CC(C)NNC(=O)c1ccncc1
3. CC[C@H]1CN2CCc3cc(OC)c(OC)cc3[C@@H]2C[C@@H]1C[C@H]1NCCc2cc(OC)c(OC)cc21

Response:
["Not Active", "Not Active", "Not Active"]
